The entries below are paired with their reported pest or weed control at 100 ppm.
# System: Erysiphe cichoracearum
# experiment: Powdery mildew of cucumber (ERYSCI) fungicidal activity
# Assay type: in vivo
# studyConditions: Golovinomyces cichoracearum, 24 h, 1 Day Protectant, read-out: Disease Control ERYSCI 1DP
# Description: Technical grades of materials were dissolved in acetone, which were then mixed with nine volumes of water containing 110 ppm Triton X-100. The fungicide solutions were applied onto wheat seedlings using an automated booth sprayer to run-off. All sprayed plants were allowed to air dry prior to further handling. […] When disease symptoms were fully expressed on the 1st leaves of untreated plants, infection levels were assessed on a scale of 0 to 100 percent disease severity. […]

Some entries whose results are on file:
Query: For the compound COc1ccnc(C(=O)N[C@H]2COC[C@H](Cc3ccccc3)[C@@H](OC(=O)C3CC3)[C@H](C)OC2=O)c1OCOC(C)=O , what pest or weed control at 100 ppm is on record?
Response: 0 to 80%

Query: For the compound COc1ccnc(C(=O)N[C@H]2COC[C@H](Cc3ccccc3)[C@@H](OCCCC(F)(F)F)[C@H](C)OC2=O)c1OCOC(C)=O , what pest or weed control at 100 ppm is on record?
Response: 80 to 100%

Further cases:
Query: For the compound COc1ccnc(C(=O)N[C@H]2COC[C@H](Cc3ccccc3)[C@@H](OCC(F)F)[C@H](C)OC2=O)c1OCOC(C)=O , what pest or weed control at 100 ppm is on record?
Response: 0 to 80%

Query: For the compound COc1ccnc(C(=O)N[C@H]2COC[C@H](Cc3ccccc3)[C@@H](OCC(C)C)[C@H](C)OC2=O)c1OCOC(=O)C(C)(C)C , what pest or weed control at 100 ppm is on record?
Response: 80 to 100%

Query: For the compound COc1ccnc(C(=O)N[C@H]2COC[C@H](Cc3ccccc3)[C@@H](OCC(C)C)[C@H](C)OC2=O)c1OC(C)=O , what pest or weed control at 100 ppm is on record?
Response: 80 to 100%

Query: For the compound COc1ccnc(C(=O)N[C@H]2COC[C@H](Cc3ccccc3)[C@@H](OC)[C@H](C)OC2=O)c1OCOC(C)=O , what pest or weed control at 100 ppm is on record?
Response: 0 to 80%

Query: For the compound COc1ccnc(C(=O)N[C@H]2COC[C@H](Cc3ccccc3)[C@@H](OCC(C)C)[C@H](C)OC2=O)c1OCOC(=O)C(C)C , what pest or weed control at 100 ppm is on record?
Response: 80 to 100%

Query: For the compound COc1ccnc(C(=O)N[C@H]2COC[C@H](Cc3ccccc3)[C@@H](OCCCc3ccccc3)[C@H](C)OC2=O)c1OCOC(C)=O , what pest or weed control at 100 ppm is on record?
Response: 0 to 80%

Query: For the compound CCCO[C@@H]1[C@@H](Cc2ccccc2)COC[C@H](NC(=O)c2nccc(OC)c2OCOC(C)=O)C(=O)O[C@H]1C , what pest or weed control at 100 ppm is on record?
Response: 80 to 100%

Query: For the compound COCCCO[C@@H]1[C@@H](Cc2ccccc2)COC[C@H](NC(=O)c2nccc(OC)c2OCOC(C)=O)C(=O)O[C@H]1C , what pest or weed control at 100 ppm is on record?
Response: 80 to 100%

Query: For the compound COc1ccnc(C(=O)N[C@H]2COC[C@H](Cc3ccccc3)[C@@H](OCCC(C)OC)[C@H](C)OC2=O)c1OCOC(C)=O (stereo partly shown) , what pest or weed control at 100 ppm is on record?
Response: 80 to 100%

Query: For the compound COc1ccnc(C(=O)N[C@H]2COC[C@H](Cc3ccccc3)[C@@H](OC3CCCC3)[C@H](C)OC2=O)c1OCOC(=O)C(C)C , what pest or weed control at 100 ppm is on record?
Response: 0 to 80%

Query: For the compound COc1ccnc(C(=O)N[C@H]2COC[C@H](Cc3ccccc3)[C@@H](OC3CCCC3)[C@H](C)OC2=O)c1OCOC(C)=O , what pest or weed control at 100 ppm is on record?
Response: 80 to 100%

The origin of these recorded values is patent US8835462B2.
